- Run Parameters: moisture sorption, 25° C., 60% RH
Reported Metric: water adsorbed at 60% RH (wt %)
The reply should contain only the number, in wt %.

For Brc1c(NC2=NCCN2)ccc2nccnc12.Brc1c(NC2=NCCN2)ccc2nccnc12.O=C(O)c1cc2ccccc2c(Cc2c(O)c(C(=O)O)cc3ccccc23)c1O [Form E, brimonidine hemi-pamoate] , what is its reported water adsorbed at 60% RH?
3.1

What do we get for Brc1c(NC2=NCCN2)ccc2nccnc12.Brc1c(NC2=NCCN2)ccc2nccnc12.O=C(O)c1cc2ccccc2c(Cc2c(O)c(C(=O)O)cc3ccccc23)c1O [Form A, brimonidine hemi-pamoate] ?
2.2

What do we get for Brc1c(NC2=NCCN2)ccc2nccnc12.Brc1c(NC2=NCCN2)ccc2nccnc12.O=C(O)c1cc2ccccc2c(Cc2c(O)c(C(=O)O)cc3ccccc23)c1O [Form B, brimonidine hemi-pamoate] ?
5.4

What do we get for Brc1c(NC2=NCCN2)ccc2nccnc12.Brc1c(NC2=NCCN2)ccc2nccnc12.O=C(O)c1cc2ccccc2c(Cc2c(O)c(C(=O)O)cc3ccccc23)c1O [Form C, brimonidine hemi-pamoate] ?
4.6

What do we get for Brc1c(NC2=NCCN2)ccc2nccnc12.Brc1c(NC2=NCCN2)ccc2nccnc12.O=C(O)c1cc2ccccc2c(Cc2c(O)c(C(=O)O)cc3ccccc23)c1O [Form D, brimonidine hemi-pamoate] ?
1.8
